Reported k el by item:
- protocol_details: Oral pharmacokinetics of FMN and BCA in rat plasma after CSE or CSE/β-CD inclusion complex
- Format: in vivo, Sprague–Dawley (SD) rats
- recorded_conditions: male, Sprague-Dawley, rat, plasma, po, rats, oral gavage of CSE; plasma; FMN approx. 5 mg/kg, BCA approx. 18 mg/kg; read-out: Ke (converted)
Just the number in s⁻¹, nothing appended.

{"columns": ["smiles_string", "k el [s⁻¹]"],
 "data": [
  ["COc1ccc(-c2coc3cc(O)ccc3c2=O)cc1", "6.39e-05"]
]}

Could you now consider this next compound?
I have this compound here, `COc1ccc(-c2coc3cc(O)cc(O)c3c2=O)cc1` , and I need its recorded k el.
4.17e-05

###

- protocol_details: Oral pharmacokinetics of FMN and BCA in rat plasma after CSE or CSE/β-CD inclusion complex
- Assay type: in vivo, Sprague–Dawley (SD) rats
- recorded_conditions: male, Sprague-Dawley, rat, plasma, po, rats, oral gavage of CSE; FMN approx. 5 mg/kg, BCA approx. 18 mg/kg
Reported AUC(0-t) by item:
Just the number in ng·h/mL, nothing appended.

{"columns": ["smiles_string", "property_label", "recorded_measurement"],
 "data": [
  ["COc1ccc(-c2coc3cc(O)ccc3c2=O)cc1", "AUC(0-t)", 30]
]}

Could you now consider this next compound?
I have this compound here, `COc1ccc(-c2coc3cc(O)cc(O)c3c2=O)cc1` , and I need its recorded AUC(0-t).
37.6

###

- protocol_details: Oral pharmacokinetics of FMN and BCA in rat plasma after CSE or CSE/β-CD inclusion complex
- Assay type: in vivo, Sprague–Dawley (SD) rats
- recorded_conditions: male, Sprague-Dawley, rat; rats, oral gavage of CSE; plasma; FMN approx. 5 mg/kg, BCA approx. 18 mg/kg
property_label: Tmax
// return the numeric value with its unit appended

{"columns": ["compound", "Tmax"],
 "data": [
  ["COc1ccc(-c2coc3cc(O)cc(O)c3c2=O)cc1 [BCA, biochanin A]", "15 min"]
]}

I have this compound here, COc1ccc(-c2coc3cc(O)ccc3c2=O)cc1 [FMN, formononetin] , and I need its recorded Tmax.
15 min

###

- protocol_details: Oral pharmacokinetics of FMN and BCA in rat plasma after CSE or CSE/β-CD inclusion complex
- Format: in vivo, Sprague–Dawley (SD) rats
- recorded_conditions: male, Sprague-Dawley, rat, plasma, po, rats, oral gavage of CSE/β-CD inclusion complex; plasma; FMN approx. 5 mg/kg, BCA approx. 18 mg/kg; read-out: Ke (converted)
- Method: The specific pathogen-free (SPF) male Sprague–Dawley (SD) rats (average body weight, 220 ± 10 g) aged eight weeks old were purchased from Shanghai Slake Laboratory Animal Co., Ltd. (Shanghai, China). […] To comparatively evaluate the pharmacokinetics of the isoflavones in CSE and the CSE/β-CD inclusion complex, the content of FMN and BCA in rat plasma was determined on a UPLC-MS/MS system equipped with a Waters ACQUITY UPLC and a Xevo TQ-S micro ESI-MS/MS system (Milford, America). […]
Reported k el by item:
Just the number in s⁻¹, nothing appended.

{"columns": ["smiles_string", "property_label", "unit_of_measurement", "recorded_measurement"],
 "data": [
  ["COc1ccc(-c2coc3cc(O)cc(O)c3c2=O)cc1", "k el", "s⁻¹", "3.06e-05"]
]}

I have this compound here, `COc1ccc(-c2coc3cc(O)ccc3c2=O)cc1` , and I need its recorded k el.
5.56e-05

###

- protocol_details: Oral pharmacokinetics of FMN and BCA in rat plasma after CSE or CSE/β-CD inclusion complex
- Type: in vivo, Sprague–Dawley (SD) rats
- recorded_conditions: male, Sprague-Dawley, rat, plasma, po, rats, oral gavage of CSE; FMN approx. 5 mg/kg, BCA approx. 18 mg/kg
property_label: half-life (h)
Just the number in h, nothing appended.

{"columns": ["compound", "property_label", "unit_of_measurement", "recorded_measurement"],
 "data": [
  ["COc1ccc(-c2coc3cc(O)cc(O)c3c2=O)cc1 [BCA, biochanin A]", "half-life", "h", 4.63]
]}

Could you now consider this next compound?
I have this compound here, COc1ccc(-c2coc3cc(O)ccc3c2=O)cc1 [FMN, formononetin] , and I need its recorded half-life.
3.84

###

- protocol_details: Oral pharmacokinetics of FMN and BCA in rat plasma after CSE or CSE/β-CD inclusion complex
- Assay type: in vivo, Sprague–Dawley (SD) rats
- recorded_conditions: male, Sprague-Dawley, rat, plasma, po, rats, oral gavage of CSE; FMN approx. 5 mg/kg, BCA approx. 18 mg/kg
property_label: AUC(0-inf)
// return the numeric value with its unit appended

{"columns": ["compound", "recorded_measurement"],
 "data": [
  ["COc1ccc(-c2coc3cc(O)ccc3c2=O)cc1 [FMN, formononetin]", "37 ng·h/mL"]
]}

Could you now consider this next compound?
I have this compound here, COc1ccc(-c2coc3cc(O)cc(O)c3c2=O)cc1 [BCA, biochanin A] , and I need its recorded AUC(0-inf).
61.9 ng·h/mL

###

- protocol_details: Oral pharmacokinetics of FMN and BCA in rat plasma after CSE or CSE/β-CD inclusion complex
- Format: in vivo, Sprague–Dawley (SD) rats
- recorded_conditions: male, Sprague-Dawley, rat, plasma, po, rats, oral gavage of CSE; FMN approx. 5 mg/kg, BCA approx. 18 mg/kg
property_label: Cmax (ng/mL)
Just the number in ng/mL, nothing appended.

{"columns": ["compound", "recorded_measurement"],
 "data": [
  ["COc1ccc(-c2coc3cc(O)cc(O)c3c2=O)cc1 [BCA, biochanin A]", 13.9]
]}

I have this compound here, COc1ccc(-c2coc3cc(O)ccc3c2=O)cc1 [FMN, formononetin] , and I need its recorded Cmax.
14.4

###

- protocol_details: Oral pharmacokinetics of FMN and BCA in rat plasma after CSE or CSE/β-CD inclusion complex
- Type: in vivo, Sprague–Dawley (SD) rats
- recorded_conditions: male, Sprague-Dawley, rat, plasma, po, rats, oral gavage of CSE/β-CD inclusion complex; FMN approx. 5 mg/kg, BCA approx. 18 mg/kg
Reported half-life by item:
Just the number in h, nothing appended.

{"columns": ["molecule", "property_label", "recorded_measurement"],
 "data": [
  ["COc1ccc(-c2coc3cc(O)cc(O)c3c2=O)cc1 [BCA, biochanin A]", "half-life", 7.33]
]}

I have this molecule here, COc1ccc(-c2coc3cc(O)ccc3c2=O)cc1 [FMN, formononetin] , and I need its recorded half-life.
4.51

###

Reported AUC(0-inf) by item:
- protocol_details: Oral pharmacokinetics of FMN and BCA in rat plasma after CSE or CSE/β-CD inclusion complex
- Type: in vivo, Sprague–Dawley (SD) rats
- recorded_conditions: male, Sprague-Dawley, rat, plasma, po, rats, oral gavage of CSE/β-CD inclusion complex; FMN approx. 5 mg/kg, BCA approx. 18 mg/kg
Just the number in ng·h/mL, nothing appended.

{"columns": ["compound", "unit_of_measurement", "AUC(0-inf)"],
 "data": [
  ["COc1ccc(-c2coc3cc(O)cc(O)c3c2=O)cc1 [BCA, biochanin A]", "ng·h/mL", 173]
]}

Could you now consider this next compound?
I have this compound here, COc1ccc(-c2coc3cc(O)ccc3c2=O)cc1 [FMN, formononetin] , and I need its recorded AUC(0-inf).
72
